testedTarget: human CD33 on CD33-expressing THP-1 cells (human, UniProt P20138 18-364)
Sequence (P20138 18-364): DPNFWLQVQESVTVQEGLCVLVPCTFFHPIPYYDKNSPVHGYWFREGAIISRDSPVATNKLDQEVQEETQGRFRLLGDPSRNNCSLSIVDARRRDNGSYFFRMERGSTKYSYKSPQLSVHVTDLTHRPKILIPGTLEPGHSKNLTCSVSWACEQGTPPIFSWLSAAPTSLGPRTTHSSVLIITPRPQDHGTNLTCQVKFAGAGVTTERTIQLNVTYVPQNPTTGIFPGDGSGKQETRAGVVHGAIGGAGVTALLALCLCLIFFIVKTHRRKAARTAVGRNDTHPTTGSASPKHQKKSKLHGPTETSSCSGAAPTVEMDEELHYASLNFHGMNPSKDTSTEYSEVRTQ
protocolSummary: cell-based or functional assay
reportedProperty: Cytotox EC50 (nM) Donor 156

binder | observedResult
scFv-VHH bispecific molecule JL6 x 5D3 (scFv (VL-L-VH)-L-VHH with C-tag) (bispecific antibody) QSVLTQPPSASGTPGQRVTISCSGSSSNIGSNPVNWYQQLPGTAPKLLIYSNNQRPSGVPDRFSGSKSGTSASLAISGLQSEDEADYFCAAWDDSLNGPVFGGGTKLTVLGGSEGKSSGSGSESKSTGGSQVQLQESGPGLVKPSETLSLTCTVSGGSISSYYWGWIRQPPGKGLEWIGYIYYSGSTNYNPSLKSRVTISVDTSKNQFSLKLSSVTAADTAVYYCARMWEILGFDPWGQGTLVTVSSGGGGSEVQLVESGGGLVQAGGSLRLSCAASGRPFSNYAMGWFRQAPGKEREFVTVISWSGGSTYYADSVKGRFTISRDNAKNTVYLQMNSLKPEDTAVYYCAAQFSGASTVVAGTALDYDYWGQGTRVTVSSAAAEPEA | 0.0029
